tested on: Beet Armyworm (Spodoptera exigua, LAPHEG) second instar larvae; test: Bioassay on Beet Armyworm (BAW), 128-well diet tray assay; type: in vivo; details: Beet Armyworm, Table ABC Biological Results, read-out: BAW rating
observable: pest or weed control at 50 µg/cm2

Below, each entry is followed by its recorded pest or weed control at 50 µg/cm2 result.
Note pest or weed control at 50 µg/cm2 for the compound shown: Cc1cc(/C(F)=C/C(c2cc(Cl)c(Cl)c(Cl)c2)C(F)(F)F)ccc1C(=O)N[C@H](C)NC(=O)CCC(F)(F)F (some centres unmarked)
50 to 100%

Note pest or weed control at 50 µg/cm2 for the compound shown: C[C@H](NC(=O)CCC(F)(F)F)NC(=O)c1ccc(/C(F)=C/C(c2ccc(F)c(Cl)c2)C(F)(F)F)cc1C(F)(F)F (some centres unmarked)
50 to 100%

Note pest or weed control at 50 µg/cm2 for the compound shown: C[C@@H](NC(=O)c1ccc(/C(F)=C/C(c2cc(Cl)c(Cl)c(Cl)c2)C(F)(F)F)cc1C(F)(F)F)NS(=O)(=O)CC(F)(F)F (some centres unmarked)
50 to 100%

Note pest or weed control at 50 µg/cm2 for the compound shown: C[C@H](NC(=O)CC(F)(F)F)NC(=O)c1ccc(/C(F)=C/C(c2ccc(Cl)c(Br)c2)C(F)(F)F)cc1C(F)(F)F (some centres unmarked)
50 to 100%

Note pest or weed control at 50 µg/cm2 for the compound shown: C[C@H](NC(=O)CC(F)(F)F)NC(=O)c1ccc(/C(F)=C/C(c2cc(Cl)cc(Cl)c2)C(F)(F)F)cc1C(F)(F)F (some centres unmarked)
50 to 100%

Note pest or weed control at 50 µg/cm2 for the compound shown: Cc1cc(C(/C=C(\F)c2ccc(C(=O)N[C@H](C)NC(=O)CC(F)(F)F)c(C(F)(F)F)c2)C(F)(F)F)cc(C)c1Cl (some centres unmarked)
50 to 100%

***
Note pest or weed control at 50 µg/cm2 for the compound shown: C[C@H](NC(=O)CCC#N)NC(=O)c1ccc(/C(F)=C/C(c2cc(Cl)c(Cl)c(Cl)c2)C(F)(F)F)cc1C(F)(F)F (some centres unmarked)
50 to 100%

Note pest or weed control at 50 µg/cm2 for the compound shown: Cc1cc(/C(F)=C/C(c2cc(Cl)c(Cl)c(Cl)c2)C(C)(F)F)ccc1C(=O)N[C@H](C)NC(=O)CC(F)(F)F (some centres unmarked)
50 to 100%

Note pest or weed control at 50 µg/cm2 for the compound shown: C[C@H](NC(=O)CC(F)(F)F)NC(=O)c1ccc(/C(F)=C/C(c2cc(Cl)c(Cl)c(Cl)c2)C(F)(F)F)c2ccccc12 (some centres unmarked)
50 to 100%

Note pest or weed control at 50 µg/cm2 for the compound shown: CC[C@H](NC(=O)CC(F)(F)F)NC(=O)c1ccc(/C(F)=C/C(c2cc(Cl)c(Cl)c(Cl)c2)C(F)(F)F)cc1C(F)(F)F (some centres unmarked)
50 to 100%

Note pest or weed control at 50 µg/cm2 for the compound shown: C[C@H](NC(=O)CC(F)(F)F)NC(=O)c1ccc(/C(F)=C/C(c2ccc(Cl)c(Cl)c2)C(C)(F)F)cc1C(F)(F)F (some centres unmarked)
50 to 100%
